Measured values drawn from patent US20230192839A1 for this set.

# Test system: human CD33
# Method Description: Biacore SPR binding kinetics of anti-CD33 scFv-Fc clones with or without 10 µM MTX
# Measurement Parameters: CD33; 0 µM MTX; 37° C., pH 7.4; scFv-Fc
Reported koff, kinetics toward antigen with 0 µM MTX by item:
Please give a number only; it is taken to be in s⁻¹.

For orientation, consider the following solved cases.
>  <Molecule>
P02_C02: anti-CD33 reference clone, less than 2-fold MTX effect; VH SEQ ID NO: 11, VL SEQ ID NO: 12 (antibody, V domains shown, Synthetic Antibody) VH: QVQLVESGGGLVQAGGSLRLSCAASRRSSRSWAMHWVRQAPGKGLEWVAVISYDGRLKYYADSVKGRFTISRDNAEYLVYLQMNSLRAEDTAVYYCAAEGGMGLDPWGQGTLVTVSS VL: DIQMTQSPSSLSASVGDRVTITCRASQTISSYLNWYQQKPGKAPKLLIYAASNLHSGVPSRFSGSGSGTDFTLTISSLQPEDFATYYCQQSYSSGTFGQGTKVEIK

>  <Output Unit>
s⁻¹

>  <Readout Value>
0.02

$$$$
>  <Molecule>
P03_H04: anti-CD33 clone with conditional affinity; VH SEQ ID NO: 39, VL SEQ ID NO: 40; also as scFv in CAR (antibody, V domains shown, Synthetic Antibody, also as scFv in CAR) VH: QVQLVESGGGLVQAGGSLRLSCAASRRSSRSWAMHWVRQAPGKGLEWVAVISYDGRLKYYADSVKGRFTISRDNAEYLVYLQMNSLRAEDTAVYYCAADPHDGYGGGPGFDYWGQGTLVTVSS VL: QSVLTQPPSASGTPGQRVTISCSGSSSNIGSNYVYWYQQLPGTAPKLLIYRSNQRPSGVPDRFSGSKSGTSASLAISGLRSEDEADYYCAAWDDTLSAVVFGTGTKLTVL

>  <Output Unit>
s⁻¹

>  <Readout Value>
0.026

$$$$
>  <Molecule>
P02_A10: anti-CD33 clone with conditional affinity; VH SEQ ID NO: 9, VL SEQ ID NO: 10 (antibody, V domains shown, Synthetic Antibody) VH: QVQLVESGGGLVQAGGSLRLSCAASRRSSRSWAMHWVRQAPGKGLEWVAVISYDGRLKYYADSVKGRFTISRDNAEYLVYLQMNSLRAEDTAVYYCAAESEWDTGGFDVWGQGTLVTVSS VL: DIQMTQSPSSLSASVGDRVTITCRASQSIGSYLNWYQQKPGKAPKLLIYSSSNLQSGVPSRFSGSGSGTDFTLTISSLQPEDFATYYCQQSYTSGTFGQGTKVEIK

>  <Output Unit>
s⁻¹

>  <Readout Value>
0.044

$$$$
>  <Molecule>
P07_C04: anti-CD33 clone with conditional affinity; VH SEQ ID NO: 25, VL SEQ ID NO: 26; also as scFv in CAR (antibody, V domains shown, Synthetic Antibody, also as scFv in CAR) VH: QVQLVESGGGLVQAGGSLRLSCAASRRSSRSWAMHWVRQAPGKGLEWVAVISYDGRLKYYADSVKGRFTISRDNAEYLVYLQMNSLRAEDTAVYYCAAEPDGEGTNGGLDIWGQGTLVTVSS VL: DIQMTQSPSSLSASVGDRVTITCRASQNISRYLNWYQQKPGKAPKLLIYSASSLQTGVPSRFSGSGSGTDFTLTISSLQPEDFATYYCQQSYSSGAFGQGTKVEIK

>  <Output Unit>
s⁻¹

>  <Readout Value>
0.0029

$$$$
>  <Molecule>
P03_A01: anti-CD33 clone with conditional affinity; VH SEQ ID NO: 19, VL SEQ ID NO: 20; also as scFv in CAR (antibody, V domains shown, Synthetic Antibody, also as scFv in CAR) VH: QVQLVESGGGLVQAGGSLRLSCAASRRSSRSWAMHWVRQAPGKGLEWVAVISYDGRLKYYADSVKGRFTISRDNAEYLVYLQMNSLRAEDTAVYYCAAETGSVGLDYWGQGTLVTVSS VL: DIQMTQSPSSLSASVGDRVTITCRASQGISTYLNWYQQKPGKAPKLLIYGATSLESGVPSRFSGSGSGTDFTLTISSLQPEDFATYYCQQGYSQGTFGQGTKVEIK

>  <Output Unit>
s⁻¹

>  <Readout Value>
0.0057

$$$$

I have this molecule here, P01_B02: anti-CD33 clone with increased affinity in presence of MTX; VH SEQ ID NO: 31, VL SEQ ID NO: 32 (antibody, V domains shown, Synthetic Antibody) VH: QVQLVESGGGLVQAGGSLRLSCAASRRSSRSWAMHWVRQAPGKGLEWVAVISYDGRLKYYADSVKGRFTISRDNAEYLVYLQMNSLRAEDTAVYYCAAADWYSGGGDALDIWGQGTLVTVSS VL: DIQMTQSPSSLSASVGDRVTITCRASQTIYNYLNWYQQKPGKAPKLLIYGASNLQSGVPSRFSGSGSGTDFTLTISSLQPEDFATYYCQQTYSSPTFGQGTKVEIK , and I need its recorded koff, kinetics toward antigen with 0 µM MTX.
0.0026

Would you mind telling me what koff, kinetics toward antigen with 0 µM MTX value was observed for P03_G12: anti-CD33 clone with conditional affinity; VH SEQ ID NO: 21, VL SEQ ID NO: 22 (antibody, V domains shown, Synthetic Antibody) VH: QVQLVESGGGLVQAGGSLRLSCAASRRSSRSWAMHWVRQAPGKGLEWVAVISYDGRLKYYADSVKGRFTISRDNAEYLVYLQMNSLRAEDTAVYYCAADPTEGWSYLDYWGQGTLVTVSS VL: DIQMTQSPSSLSASVGDRVTITCRASQGISSYLNWYQQKPGKAPKLLIYGASRLQSGVPSRFSGSGSGTDFTLTISSLQPEDFATYYCQQGYSSGTFGQGTKVEIK ?
0.0094
